tested on: HCC 2998; test: Growth inhibition of human HCC2998 cells assessed as cell growth at 10^-8 M incubated for 48 hrs by sulforhodamine B assay relative to control; format: functional; settings: HCC 2998, 48 h, read-out: Activity
This listing pairs molecules with measured growth at 0.01 µM.
MEASUREMENT_KIND: growth at 0.01 µM (%)

>>> observed_measurement("C#C[C@@]1(O)[C@@H](CO)O[C@@H](n2cc(F)c3c(N)ncnc32)[C@@H]1O")
98
>>> observed_measurement("C#C[C@@]1(O)[C@@H](CO)O[C@@H](n2ccc3c(N)ncnc32)[C@@H]1O")
99

###

This listing pairs compounds with measured growth at 0.1 µM.
tested on: OVCAR-4; experiment: Growth inhibition of human OVCAR4 cells assessed as cell growth at 10^-7 M incubated for 48 hrs by sulforhodamine B assay relative to control; format: functional; details: OVCAR-4, 48 h, read-out: Activity
MEASUREMENT_KIND: growth at 0.1 µM (%)

>>> observed_measurement("C#C[C@@]1(O)[C@@H](CO)O[C@@H](n2cc(F)c3c(N)ncnc32)[C@@H]1O")
90
>>> observed_measurement("C#C[C@@]1(O)[C@@H](CO)O[C@@H](n2ccc3c(N)ncnc32)[C@@H]1O")
97

###

This listing pairs molecules with measured growth at 0.01 µM.
test system: T47D; assay: Growth inhibition of human T47D cells assessed as cell growth at 10^-8 M incubated for 48 hrs by sulforhodamine B assay relative to control; assay type: functional; settings: read-out: Activity
MEASUREMENT_KIND: growth at 0.01 µM

>>> observed_measurement("C#C[C@@]1(O)[C@@H](CO)O[C@@H](n2cc(I)c3c(N)ncnc32)[C@@H]1O")
"13 to 44%"
>>> observed_measurement("C#C[C@@]1(O)[C@@H](CO)O[C@@H](n2cc(Br)c3c(N)ncnc32)[C@@H]1O")
"64 to 81%"
>>> observed_measurement("C#C[C@@]1(O)[C@@H](CO)O[C@@H](n2ccc3c(N)ncnc32)[C@@H]1O")
"92%"
>>> observed_measurement("C#C[C@@]1(O)[C@@H](CO)O[C@@H](n2cc(Cl)c3c(N)ncnc32)[C@@H]1O")
"71 to 84%"
>>> observed_measurement("C#C[C@@]1(O)[C@@H](CO)O[C@@H](n2cc(F)c3c(N)ncnc32)[C@@H]1O")
"101%"

###

This listing pairs compounds with measured growth at 1 µM.
system: SF-295; assay: Growth inhibition of human SF295 cells assessed as cell growth at 10^-6 M incubated for 48 hrs by sulforhodamine B assay relative to control; type: functional; conditions: SF-295, 48 h, read-out: Activity
MEASUREMENT_KIND: growth at 1 µM (%)

>>> observed_measurement("C#C[C@@]1(O)[C@@H](CO)O[C@@H](n2ccc3c(N)ncnc32)[C@@H]1O")
74
>>> observed_measurement("C#C[C@@]1(O)[C@@H](CO)O[C@@H](n2cc(F)c3c(N)ncnc32)[C@@H]1O")
40

###

system: HL-60(TB); experiment: Cytotoxicity against human HL-60(TB) cells after 48 hrs by SRB assay; assay type: functional; details: HL-60, 48 h, read-out: TGI
This listing pairs compounds with measured TGI.
MEASUREMENT_KIND: TGI (µM)

>>> observed_measurement("C#C[C@@]1(O)[C@@H](CO)O[C@@H](n2cc(F)c3c(N)ncnc32)[C@@H]1O")
3.53
>>> observed_measurement("C#C[C@@]1(O)[C@@H](CO)O[C@@H](n2ccc3c(N)ncnc32)[C@@H]1O")
5.49
